Answer each item with its documented TGI.
- Test system: IGROV1 ovarian
- assayRemarks: NCI tumour cell line growth inhibition, 48 h

Would you please look over these solved cases?
O=C(c1ccccc1)N1C2CCC1C(C(F)(F)F)=C2C(F)(F)F
> 100 µM
Nc1nc2c(s1)CCc1c-2c(Br)n(Cc2ccccc2)c1Br
37.5 µM
CN(N)c1cc(=O)[nH]c(=O)[nH]1
> 100 µM
COc1ccc(C2CC(c3cc(C)ccc3O)=NC(N)=N2)cc1 (stereo unspecified)
> 100 µM
S=C1CC(c2ccccc2)Sc2ccccc2N1 (stereo unspecified)
> 100 µM

Look up TGI for the entries below, preserving their order.
1. CC(=O)OC/C=C\Cn1nc(Br)c(=O)[nH]c1=O
2. C[C@H](Nc1ncnc2nc[nH]c12)c1cc2ccc(F)cc2nc1-c1ccccn1

## Result
1. 29.4 µM
2. > 100 µM

# batch size: 4; output TGI per entry
1. CN(C)P(=O)(Oc1ccc(CC(NC(=O)OCc2ccccc2)C(=O)OCc2ccccc2)cc1)N(C)C (stereo unspecified)
2. CCC(=O)c1ccc2[nH]c3c(C)c4c(=O)cc(C)[nH]c4c(C)c3c2c1
3. CCOC(=O)C1C2CCC(C2)C1(CCl)C(=O)OCC (stereo unspecified)
4. CC1(C)Cc2c(C#N)c(N)c3c(c2CO1)C(=O)OC3=O

## Result
32.9 µM
> 100 µM
> 100 µM
> 100 µM

###

Kindly supply the reported TGI values for the records listed here.
- Tested on: UACC-257 melanoma
- assayRemarks: NCI tumour cell line growth inhibition, 48 h
Give bare numbers, in µM.

Would you please look over these solved cases?
CC(=O)O[C@H]1/C(=C/c2ccncc2)C[C@H]2[C@@H]3CC=C4C[C@@H](N5CCCC5)CC[C@]4(C)[C@H]3CC[C@]12C
6.42
CN(C)c1ccc(N=C2C=CC(=[N+](C)C)C=C2)cc1
24.8

Next molecule, TGI to be filled in.
Given the molecule "COc1cc(OC)c(/C=C\c2ccnc3ccccc23)c(OC)c1" and test system UACC-257 melanoma, the measured TGI is 17.8

###

- System: SK-MEL-5 melanoma
- assayRemarks: NCI tumour cell line growth inhibition, 48 h
Task for the reader: assign each of the following compounds its reported GI50.

Cc1ccc(-c2cc3c(SCC(=O)Nc4cc(C(F)(F)F)ccc4Cl)nccn3n2)cc1
> 100 µM
CS(=O)(=O)Nc1ccc(-c2cc(-c3ccccc3)cc(C(N)=O)c2N)cc1
15.6 µM
COc1ccc2c(c1)[n+](=O)c(C(=O)c1ccco1)c(C(F)(F)F)n2[O-]
1.31 µM

GI50 recorded for this compound, "CCCCCCCCN(CCCCCCCC)CCCCCCNc1cc(OC)cc2cccnc12" , is 8.53 µM

###

- Test system: MOLT-4 leukemia
- assayRemarks: NCI tumour cell line growth inhibition, 48 h
Could you please report measured TGI for the items listed next?

The following compounds have reported results that may help.
C/C=C/C1=CC(=O)C(O)C1O (stereo not drawn)
109 µM
CC(C)=NNC=N/C(C#N)=C(\N)C#N
> 100 µM
O=C(O)c1ccc(NC(NC(=O)C(C(F)(F)F)C(F)(F)F)(C(F)(F)F)C(F)(F)F)cc1
> 100 µM
O=C(Nc1ccccc1)N(C1=NCC(CI)S1)c1ccc(F)cc1F (stereo not drawn)
57 µM
CC1Oc2c(c(=O)oc3ccccc23)[C@@]1(C)CC1C[C@H](C)C(=O)O1 (stereo partly drawn)
37.2 µM

Provide each entry's TGI from the list below.
1. COC1CCN(C(=O)c2cc(Cc3n[nH]c(=O)c4ccccc34)ccc2F)CC1
2. CN(C)S(=O)(=O)/N=C/c1cccc(/C=N/S(=O)(=O)N(C)C)c1
3. CC(=O)OC1CCCn2c1nc1c2C(=O)C(C)=C(N2CC2)C1=O (stereo not drawn)
4. Cc1nc2c(=O)n(-c3ccccc3)c3ccccc3c2o1

## Result
1: > 100 µM; 2: > 100 µM; 3: > 100 µM; 4: > 100 µM

Below are some compounds; for each one, tell me its TGI.
1. CCN1C(=O)N(CC)C2Nn3c(s/c(=C\c4ccccc4Br)c3=O)=NC21 (stereo not drawn)
2. COc1ccc2c(CN3CCC(C(=O)O)CC3)cc3cc4c(cc3c2c1)OCO4
3. Cc1nnc2sc(NN)nn12
4. Cl.Fc1c[c-]c(-c2ccccn2)c(F)c1.[Pt].c1ccc(P(c2ccccc2)C([PH+](c2ccccc2)c2ccccc2)[PH+](c2ccccc2)c2ccccc2)cc1

## Result
["23.2 µM", "9.73 µM", "31.6 µM", "> 100 µM"]

Provide TGI for all items below, preserving their order.
1. Cc1ccccc1-n1ncc(C(=O)c2ccccc2)c1N
2. CN(N)c1cc(=O)[nH]c(=O)[nH]1
3. C/C(=C\CCc1ccoc1)CC/C=C(\C)CCCN1CCOCC1
4. NC(=S)N/N=C1\NC(=O)/C(=C/c2ccc3c(c2)OCO3)S1
5. c1ccc(CNCCCCNCCCNCc2ccccc2)cc1

## Result
["> 25 µM", "> 100 µM", "16.9 µM", "67.3 µM", "33.2 µM"]

For each of the items listed, what is its TGI?
1. Nc1nc2c(s1)CCc1c-2c(Br)n(Cc2ccccc2)c1Br
2. CC(C)(C)OC(=O)NCCc1cccc2c1oc1c(CCC(=O)O)cccc12
3. COC(=O)C(Cc1cc(OC)c(OC)c(OC)c1)c1ccc(OC)cc1 (stereo not drawn)
4. CCN(CC)CCNC(=O)c1cc2cc(NC(=O)c3cc4cc(NC(=O)c5cc6cc(N)ccc6[nH]5)ccc4[nH]3)ccc2[nH]1
5. COC(=O)c1c(O)ccc2c1c1c(n2Cc2ccc(Cl)cc2Cl)C(=O)c2ccccc2C1=O
6. NNC(=O)CNC(=O)c1ccc(Cl)cc1Cl
7. O=C(/C(=C\c1ccc([N+](=O)[O-])cc1)S(=O)Cc1ccc(F)cc1)c1ccc(F)cc1 (stereo not drawn)

## Result
["26.7 µM", "> 100 µM", "> 100 µM", "> 100 µM", "7.17 µM", "> 100 µM", "5.06 µM"]

Go through the items and report each one's TGI.
1. CCc1c(Cc2[nH]c(Cc3[nH]c(C=O)c(C)c3CC)c(CC)c2CC)[nH]c(C=O)c1C
2. O=C(c1ccccc1)N1C2CCC1C(C(F)(F)F)=C2C(F)(F)F
3. CCOC(=O)[C@@]12C[C@](/C=C/OC)(O[Si](C)(C)C)[C@@]13c1cc(OC)c(OC)cc1CCN3C(=O)C2O (stereo partly drawn)
4. S=C1CC(c2ccccc2)Sc2ccccc2N1 (stereo not drawn)
5. CN(NC(=O)c1cccs1)C1=NCCCCN1
6. Clc1ccc2c(c1)N(c1ncnc3ccc(-c4cnc5[nH]ccc5c4)cc13)CC2

## Result
1. > 100 µM
2. > 100 µM
3. > 100 µM
4. > 100 µM
5. > 100 µM
6. > 100 µM

Below is a list of compounds. For each, state its recorded TGI.
1. NC(=O)c1ccc(NN=O)nc1
2. O=P1(Oc2ccccc2)N(CCCl)CCN1c1ccccc1 (stereo not drawn)
3. CNCc1cc(OC)ccc1-c1ccc(OC)c(OC)c1OC
4. CO/N=C(\C(=O)N(C)n1cnnc1)c1csc(NC(c2ccccc2)(c2ccccc2)c2ccccc2)n1
5. O=C(N=Nc1cccc(Cl)c1)NNc1cccc(Cl)c1
6. Cc1ccc(C(SCC(N)C(=O)O)(c2ccc(C)cc2)c2ccc(C)cc2)cc1 (stereo not drawn)
7. CC(/C(=N\Nc1ccccc1)c1ccc(O)cc1)C1C(=O)Oc2ccccc21 (stereo not drawn)
8. CCC(=O)c1ccc2[nH]c3c(C)c4c(=O)cc(C)[nH]c4c(C)c3c2c1

## Result
1: > 100 µM; 2: > 100 µM; 3: > 100 µM; 4: > 10 µM; 5: 42.7 µM; 6: 20.2 µM; 7: > 100 µM; 8: > 100 µM

Quick batch: TGI for everything below.
1. O=C(N/N=C/c1cc(Cl)cc(Cl)c1[O-])c1ccccc1O.O=C(N/N=C/c1cc(Cl)cc(Cl)c1[O-])c1ccccc1O.[Zn+2]
2. O=C(CSc1nc2[nH]ncc2c(=O)[nH]1)c1ccc(Cl)cc1
3. Cc1ncc2c(=O)c3c(oc2n1)c1ccccc1n3Cc1ccccc1
4. CCC[C@H](NS(=O)c1ccc(C)cc1)C(C(=O)OCC)=C(c1ccccc1)c1ccccc1 (stereo partly drawn)

## Result
18 µM
> 100 µM
> 100 µM
> 100 µM

###

Field: GI50. Provide a value for each of the compounds that follow.
- Test system: HL-60(TB) leukemia
- assayRemarks: NCI tumour cell line growth inhibition, 48 h

Nc1nc(OCc2cc(Br)cs2)c2[nH]cnc2n1
27.9 µM

Batch lookup, GI50 per entry.
1. O=C1NC(=O)C(=C/C=C/c2ccccc2)C(=O)N1
2. CCCCCCCCN(CCCCCCCC)CCCCCCNc1cc(OC)cc2cccnc12
3. Clc1cccc(Cl)c1C1CSc2ccccc2N=C1c1ccccc1 (stereo not drawn)
4. Clc1ccc2c(c1)N(CCCN1CCCC1)c1ccccc1S2
5. Clc1ccc2c(c1)N(c1ncnc3ccc(-c4cnc5[nH]ccc5c4)cc13)CC2

## Result
1: 2.91 µM; 2: 16.4 µM; 3: 8.2 µM; 4: 4.34 µM; 5: 1.26 µM

Please give GI50, item by item, for the list that follows.
1. CCOC(=O)c1c(C)n2c(=O)cc(C)c3c(O)c(O)cc1c32
2. CC1(C)CCC2=C(O1)c1ccccc1C(=O)C2=O
3. C=C(C)[C@@H]1CC[C@]2(C(=O)O)CC[C@]3(C)[C@H](CC[C@@H]4[C@@]5(C)C[C@@H](CC#Cc6ccc(C(F)(F)F)cc6)[C@H](O)C(C)(C)[C@@H]5CC[C@]43C)[C@@H]12
4. C/C(=C\CCc1ccoc1)CC/C=C(\C)CCCN1CCOCC1
5. COc1ccc2c(CN3CCC(C(=O)O)CC3)cc3cc4c(cc3c2c1)OCO4
6. c1cc2[nH]ncc2cc1-c1nc2ccc3[nH]ncc3c2c2c1CCCC2
7. COc1cccc(/C=N/[N-]C(N)=O)c1[O-].[Ni+2].[OH3+].c1ccc(-c2ccccn2)nc1

## Result
2.92 µM
2.83 µM
6.2 µM
2.5 µM
3.97 µM
0.512 µM
66.9 µM
